// provenance: PubChem BioAssay (NCI)

Readings of growth inhibition for the listed compounds
Assay: NCI Yeast Anticancer Drug Screen. Data for the bub3 strain (AID 167)
Conditions: S. cerevisiae bub3 mutant strain, at 50.0 µM, stronger effect = higher value
About 79,000 compounds went through this panel and 15% of them were active in at least one assay; those are over-represented in the sample as a whole.
Numbers only; they are read as %.

Past entries and their recorded results:
| Compound | growth inhibition [%] |
| --- | --- |
| CCOC(=O)C(CCc1ccc([N+](=O)[O-])cc1)(CCc1ccc([N+](=O)[O-])cc1)C(=O)OCC | -0.3 |
| CCCCCOc1ccc2ccccc2c1 | 10.2 |
| CCN(CC)c1ccc(N=C2C=C(C(=O)Nc3ccccc3OC)C(=O)c3ccccc32)c(C)c1 | -2.6 |
| Cn1cc(-c2ccc3c4ccccc4n(C)c3c2)c2ccccc21 | -10.2 |
| CNc1nc2c(C)ccc3[nH]c(NC)nc3c-2n1 | -41.4 |

Return growth inhibition (reported value) for this compound: O=C(Cc1ccccc1)Nc1ccccc1Cl 14.7

Return growth inhibition (reported value) for this compound: Cc1ccc(N=Nc2ccc(O)c(CN(C)C)c2)cc1C 49

Return growth inhibition (reported value) for this compound: CCCCCCCCCCCCCCCc1c(NC(C)(CC)[P+](=O)O)c(=O)n(C)n1C (centres undefined) -12.2

Return growth inhibition (reported value) for this compound: CN(C)C(=O)NCc1cccnc1 -3.45

Return growth inhibition (reported value) for this compound: O=C(O)CCC(NC(=O)c1ccc(Nc2nc3ccccc3nc2C(=O)O)cc1)C(=O)O (centres undefined) 0

Return growth inhibition (reported value) for this compound: CC1CP(=O)(Cc2ccccc2)C(C)(c2ccccc2)C1=O (centres undefined) 40.2

Return growth inhibition (reported value) for this compound: CN(C)Cc1onc(-c2c(Cl)cccc2Cl)c1C(=O)O 21.2
